target_desc: T1, recombinant human domain 1-3His6 of the cation-independent mannose-6-phosphate receptor (human, UniProt P11717 41-467)
T1 construct: Biotinylated (NHS-PEG4-biotin) for BLI; Glycosylated; also called hDom1-3His6; hCI-M6PRD1-D3
test_protocol: BLI exp 1, dissoc pH 7.4
endpoint_name: koff (s⁻¹)

binder	koff [s⁻¹]
anti-CI-M6PR VHH4 (VHH, His6-tagged; made in Pichia pastoris) VHH: QVQLQESGGGLVQAGGSLRLSCAASGRTFSNYVMGWFRQAPGKEREFVGSISQGGKMTYYPDSVKGRFTISRDNAKNTMYLQMDGLKPEDTAVYYCAVSRGYPMVRVSEVDYWGQGTQVTVSS	0.00133

A: anti-CI-M6PR VHH2 (VHH, His6-tagged; made in Pichia pastoris) VHH: QVQLQESGGGLVQPGGSLRLSCVFSGRTFMSYDVGWFRQAPGKERELLSSITSSSSSPYYAESVKGRFAVSRDGAKKTVYLRMNSLEPEDTAVYYCAARENWRNDWQYWGQTQVTVSS
B: anti-CI-M6PR VHH9 (VHH, His6-tagged; made in Pichia pastoris) VHH: QVQLQESGGGLVQAGGSLRLSCAASGTILSIKTMGWYRQAPGKEREWVATITSSSIPMYADSVKGRFTISRDDAKNTVYLQMNSLKPEDTGVYYCNAPWTDYWGQGTQVTVSS
**Query** Lab notebook, comparison: A versus B , higher koff goes to which? Respond with the label that goes with your answer.
**Result** A
(A: 0.0036 s⁻¹, B: 0.000444 s⁻¹)

Cited source: patent US20250263490A1
